assay: Human HepG2 cell viability assay in 384 well format; type: toxicity, cell-based; design: dose 125 nL, time 70.5 hour; concentration not given beside the values; details: HepG2 cells, read-out: Inhibition
Here the recorded cytotoxicity at 70.5 h is given for each entry.
Report the value in % with no unit label.

Quick one: cytotoxicity at 70.5 h of `CC(=O)NCCNC(=O)c1sccc1Br` ?
-16.2

Quick one: cytotoxicity at 70.5 h of COCCNC(=O)CN1CCN(c2nc(C)cs2)C(C)C1 (configuration not stated) ?
-1.03

Quick one: cytotoxicity at 70.5 h of `CN(C)C[C@]12COC[C@H]1CN(Cc1ccccn1)C2` ?
-8.89

Quick one: cytotoxicity at 70.5 h of `CCNc1cc2c(nn1)CCN(C(=O)Cc1ccc(C)s1)C2` ?
0.997

Quick one: cytotoxicity at 70.5 h of Cc1ccc(N2CCCC(NC(=O)C(C)(C)C#N)C2=O)cc1 (configuration not stated) ?
1.69

Quick one: cytotoxicity at 70.5 h of `Cc1cnn(CCNCc2ccccc2OCc2ccncc2)c1` ?
3.09

Quick one: cytotoxicity at 70.5 h of `Cc1ccsc1C(=O)N1CCC(c2nccn2Cc2ccncc2)CC1` ?
-9.49

Quick one: cytotoxicity at 70.5 h of `Cc1noc(C2CCN(C(=O)c3c(C)noc3C)CC2)n1` ?
-10.7

Others:
Quick one: cytotoxicity at 70.5 h of `Cc1cccc(-n2nc(CC(C)C)nc2CCCC(N)=O)c1` ?
-6.23

Quick one: cytotoxicity at 70.5 h of COCC1N(C(=O)c2ccc3c(c2)OCCCO3)[C@H]2CC[C@]1(O)CC2 (some centres not stated) ?
-6.94

Quick one: cytotoxicity at 70.5 h of Cc1ccc2c(c1)C1(CCNCC1)CC2N1CCOCC1 (configuration not stated) ?
1.67

Quick one: cytotoxicity at 70.5 h of Cn1ncc2ccc(C3CCCN(Cc4ccsc4)C3)nc21 (configuration not stated) ?
7.16

meta.source: ChEMBL document CHEMBL3507680
